TGT: Human BOAT1 (Homo sapiens)
Construct: expressed in transfected cells
Sequence (Q695T7 whole entry): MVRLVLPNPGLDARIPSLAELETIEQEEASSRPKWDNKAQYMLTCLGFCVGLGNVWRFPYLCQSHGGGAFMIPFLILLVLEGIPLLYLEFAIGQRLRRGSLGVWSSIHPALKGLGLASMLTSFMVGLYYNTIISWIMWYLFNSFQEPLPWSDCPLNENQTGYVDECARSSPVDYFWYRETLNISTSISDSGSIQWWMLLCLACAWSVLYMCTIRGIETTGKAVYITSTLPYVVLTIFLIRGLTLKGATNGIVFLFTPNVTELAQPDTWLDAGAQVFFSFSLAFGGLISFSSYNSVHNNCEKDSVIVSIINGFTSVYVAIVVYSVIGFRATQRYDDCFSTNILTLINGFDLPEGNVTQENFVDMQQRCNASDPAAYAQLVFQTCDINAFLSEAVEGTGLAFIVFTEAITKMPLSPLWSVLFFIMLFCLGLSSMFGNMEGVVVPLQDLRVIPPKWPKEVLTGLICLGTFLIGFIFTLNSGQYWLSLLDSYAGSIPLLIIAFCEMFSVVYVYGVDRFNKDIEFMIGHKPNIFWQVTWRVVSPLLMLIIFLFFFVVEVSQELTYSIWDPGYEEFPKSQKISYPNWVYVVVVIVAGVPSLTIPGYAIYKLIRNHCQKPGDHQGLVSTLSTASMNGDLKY
PROTOCOL: hBOAT1 inhibitory test (phenylalanine uptake)
Format: cell-based
MEASUREMENT_CONTEXT: Human BOAT1 stable expression CHO cells; [3H]-L-phenylalanine uptake, phenylalanine 0.25 mM; radioactivity after 100 to 200 min; read-out: hB0AT1 IC50
pIC50: −log10 of the molar value.
Classify as follows. Reported pIC50 greater than or equal to 7: Fulfilled. Reported pIC50 below: Not fulfilled.

• O=C(/C=C/c1ccc(C(F)(F)F)cc1)NCC(=O)N1CCc2cc(N3CCC(C(=O)O)CC3)ccc2C1 [I-161] = Not fulfilled
• CC(Cc1ccc2c(c1)CCN(C(=O)CNC(=O)/C=C/c1ccc(C(F)(F)F)cc1)C2)C(=O)O (centres unmarked) [I-163] = Not fulfilled
• O=C(/C=C/c1ccc(C(F)(F)F)cc1)NCC(=O)N1CCc2cc(N3CCC(C(=O)O)CC3)ncc2C1 [I-173] = Not fulfilled
• CCC1c2ccc(CC(=O)O)cc2CCN1C(=O)CNC(=O)/C=C/c1ccc(C(F)(F)F)cc1 (centres unmarked) [I-216] = Not fulfilled
• O=C(O)CCCN1CCN(C(=O)CNC(=O)/C=C/c2ccc(C(F)(F)F)cc2F)[C@@H](C(F)(F)F)C1 [I-243] = Not fulfilled
• O=C(O)Cc1cc(Cl)c2c(c1)CCN(C(=O)CNC(=O)/C=C/c1ccc(C(F)(F)F)cc1F)C2 [I-141] = Fulfilled
• CC(CC(=O)O)c1ccc2c(c1)CCN(C(=O)CNC(=O)/C=C/c1ccc(C(F)(F)F)cc1)C2 (centres unmarked) [I-164] = Not fulfilled
• O=C(O)Cc1cccc2c1CCN(C(=O)CNC(=O)/C=C/c1ccc(C(F)(F)F)cc1)C2 [I-192] = Not fulfilled
• COc1cc(CC(=O)O)cc2c1CN(C(=O)CNC(=O)/C=C/c1ccc(C(F)(F)F)cc1)CC2 [I-177] = Not fulfilled
• O=C(O)CNc1ccc2c(c1)CN(C(=O)CNC(=O)/C=C/c1ccc(C(F)(F)F)cc1)CC2 [I-217] = Not fulfilled
• O=C(O)Cc1cnn2c1CN(C(=O)CNC(=O)/C=C/c1ccc(C(F)(F)F)cc1)CC2 [I-179] = Not fulfilled
• CNC(=O)Cc1cnn2c1CN(C(=O)CNC(=O)/C=C/c1ccc(C(F)(F)F)cc1)CC2 [I-374] = Fulfilled
• O=C(O)CCc1cccc2c1CCN2C(=O)CNC(=O)/C=C/c1ccc(C(F)(F)F)cc1F [I-245] = Fulfilled
• O=C(O)CSc1nc2c(s1)CN(C(=O)CNC(=O)/C=C/c1ccc(C(F)(F)F)cc1)CC2 [I-215] = Not fulfilled
• N#Cc1cc(CC(=O)O)cc2c1CN(C(=O)CNC(=O)/C=C/c1ccc(C(F)(F)F)cc1)CC2 [I-148] = Not fulfilled
• COCC1c2ccc(CC(=O)O)cc2CCN1C(=O)CNC(=O)/C=C/c1ccc(C(F)(F)F)cc1 (centres unmarked) [I-212] = Not fulfilled
• O=C(O)CCCN1CCN(C(=O)CNC(=O)/C=C/c2ccc(C(F)(F)F)cc2F)[C@@H](c2ccc(Br)cc2)C1 [I-232] = Fulfilled
• O=C(O)CCCN1CCN(C(=O)CNC(=O)/C=C/c2ccc(C(F)(F)F)cc2F)C(c2cccc(F)c2)C1 (centres unmarked) [I-239] = Not fulfilled
• O=C(O)Cc1ccc2c(c1)CN(C(=O)CNC(=O)/C=C/c1ccc(C(F)(F)F)cc1)CC2 [I-168] = Not fulfilled

Data provenance: patent US20260001849A1
